Tested on: Human immunodeficiency virus type 1 reverse transcriptase (Human immunodeficiency virus 1), Q72547 [[…]]
methodDescription: Inhibition of HIV1 reverse transcriptase Y188L mutant
Flag rule - log(1/C) less than 8 flags Met; the remaining entries get Not met.

Example results:
>  <smilesStr>
Cc1cc(C#N)cc(C)c1Nc1nc(Nc2ccc(C#N)cc2)ncc1Cl

>  <cat>
Not met

$$$$
>  <smilesStr>
Cc1cc(C#N)cc(C)c1Sc1ccnc(Nc2ccc(C#N)cc2)n1

>  <cat>
Met

$$$$
>  <smilesStr>
Cc1cc(C#N)cc(C)c1Oc1nc(Nc2ccc(C#N)cc2)ncc1Cl

>  <cat>
Not met

$$$$
>  <smilesStr>
Cc1cc(Cl)cc(Cl)c1Nc1ccnc(Nc2ccc(C#N)cc2)n1

>  <cat>
Met

$$$$
>  <smilesStr>
C=Cc1cnc(Nc2ccc(C#N)cc2)nc1Nc1c(C)cc(C)cc1C

>  <cat>
Met

$$$$

Does the reported log(1/C) of "Cc1cc(C#N)cc(C)c1Nc1nc(Nc2ccc(C#N)cc2)ncc1Br" stay below 8? Not met

Does the reported log(1/C) of "Cc1cc(C)c(Nc2ccnc(Nc3ccc(C#N)cc3)n2)c(C)c1" stay below 8? Met

Does the reported log(1/C) of "Cc1cc(C)c(Oc2ccnc(Nc3ccc(C#N)cc3)n2)c(C)c1" stay below 8? Met

Does the reported log(1/C) of "C#Cc1cc(C)c(Oc2ccnc(Nc3ccc(C#N)cc3)n2)c(C)c1" stay below 8? Met

Does the reported log(1/C) of "Cc1cc(C)c(Nc2nc(Nc3ccc(C#N)cc3)ncc2C#N)c(C)c1" stay below 8? Met

Does the reported log(1/C) of "Cc1cc(C)c(Nc2nc(Nc3ccc(C#N)cc3)ncc2Cl)c(C)c1" stay below 8? Met

Does the reported log(1/C) of "Cc1cc(Br)cc(C)c1Oc1ccnc(Nc2ccc(C#N)cc2)n1" stay below 8? Met

Does the reported log(1/C) of "N#Cc1ccc(Nc2nccc(Nc3c(Cl)cc(Cl)cc3Cl)n2)cc1" stay below 8? Met

Does the reported log(1/C) of "Cc1cc(Cl)cc(C)c1Nc1ccnc(Nc2ccc(C#N)cc2)n1" stay below 8? Met

Does the reported log(1/C) of "Cc1cc(C)c(Oc2nc(Nc3ccc(C#N)cc3)ncc2Br)c(C)c1" stay below 8? Met

Does the reported log(1/C) of "Cc1cc(C)c(Nc2nc(Nc3ccc(C#N)cc3)ncc2C)c(C)c1" stay below 8? Met

* * *

methodDescription: Hydrophobic index, Log P of the compound
Assay type: physicochemical
conditionsUsed: octanol/water; read-out: logP
Flag rule - logP less than 1 flags True; the remaining entries get False.

Does the reported logP of "Cc1cc(C#N)cc(C)c1Nc1nc(Nc2ccc(C#N)cc2)ncc1Cl" stay below 1? False

Does the reported logP of "Cc1cccc(C)c1Nc1ccnc(Nc2ccc(C#N)cc2)n1" stay below 1? False

Does the reported logP of "Cc1cc(Br)c(Nc2ccnc(Nc3ccc(C#N)cc3)n2)c(Br)c1" stay below 1? False

* * *

methodDescription: Hydrophobic index, Log P of the compound
Format: physicochemical
conditionsUsed: octanol/water; read-out: logP
readoutName: logP
// no unit, no text: just the number

>  <smilesStr>
Cc1cc(C)c(Nc2nc(Nc3ccc(C#N)cc3)ncc2C)c(C)c1

>  <logP>
1.92

$$$$

// recorded logP for "Cc1cc(Cl)cc(Cl)c1Nc1ccnc(Nc2ccc(C#N)cc2)n1" : 0.89

// recorded logP for "Cc1cc(C#N)cc(C)c1Sc1ccnc(Nc2ccc(C#N)cc2)n1" : 2.06

// recorded logP for "Cc1cc(C#N)cc(C)c1Oc1nc(Nc2ccc(C#N)cc2)nc(N)c1Br" : 1.54

// recorded logP for "Cc1cc(C#N)cc(C)c1Nc1nc(Nc2ccc(C#N)cc2)nc(CO)c1Br" : 0.81

* * *

Test system: Human immunodeficiency virus type 1 reverse transcriptase (Human immunodeficiency virus 1), Q72547 [L100I]
methodDescription: Inhibition of HIV1 reverse transcriptase L100I mutant
Below, each entry is listed alongside its reported log(1/C).
// no unit, no text: just the number

>  <smilesStr>
Cc1cc(C)c(Oc2nc(Nc3ccc(C#N)cc3)ncc2Br)c(C)c1

>  <log(1/C)>
7.96

$$$$
>  <smilesStr>
Cc1cc(C#N)cc(C)c1Oc1nc(Nc2ccc(C#N)cc2)ncc1Cl

>  <log(1/C)>
8.12

$$$$

// recorded log(1/C) for "C#Cc1cc(C)c(Oc2ccnc(Nc3ccc(C#N)cc3)n2)c(C)c1" : 6.73

// recorded log(1/C) for "Cc1cc(Br)c(Nc2ccnc(Nc3ccc(C#N)cc3)n2)c(Br)c1" : 8.52

// recorded log(1/C) for "Cc1cc(C)c(Nc2nc(Nc3ccc(C#N)cc3)ncc2C#N)c(C)c1" : 7.2

* * *

Test system: Human immunodeficiency virus type 1 reverse transcriptase (Human immunodeficiency virus 1), Q72547 [Y181C]
methodDescription: Inhibition of HIV1 reverse transcriptase Y181C mutant
Below, each entry is listed alongside its reported log(1/C).
// no unit, no text: just the number

Some solved cases for reference:
>  <smilesStr>
N#Cc1ccc(Nc2nccc(Nc3c(Br)cc(F)cc3Br)n2)cc1

>  <experimentalValue>
7.82

$$$$
>  <smilesStr>
Cc1cc(Br)c(Nc2ccnc(Nc3ccc(C#N)cc3)n2)c(Br)c1

>  <experimentalValue>
8.47

$$$$

// recorded log(1/C) for "Cc1cc(C)c(Nc2nc(Nc3ccc(C#N)cc3)ncc2C)c(C)c1" : 7.92

// recorded log(1/C) for "Cc1cc(C)c(Nc2nc(Nc3ccc(C#N)cc3)ncc2Cl)c(C)c1" : 7.49

// recorded log(1/C) for "Cc1cc(C)c(Oc2nc(Nc3ccc(C#N)cc3)ncc2Br)c(C)c1" : 7.44

// recorded log(1/C) for "Cc1cc(Cl)cc(Cl)c1Nc1ccnc(Nc2ccc(C#N)cc2)n1" : 7.74

// recorded log(1/C) for "Cc1cc(C#N)cc(C)c1Oc1nc(Nc2ccc(C#N)cc2)ncc1Cl" : 7.47

// recorded log(1/C) for "C=Cc1cnc(Nc2ccc(C#N)cc2)nc1Nc1c(C)cc(C)cc1C" : 7.44

// recorded log(1/C) for "Cc1cc(C#N)cc(C)c1Nc1nc(Nc2ccc(C#N)cc2)nc(CO)c1Br" : 8.22

// recorded log(1/C) for "Cc1cc(C#N)cc(C)c1Sc1ccnc(Nc2ccc(C#N)cc2)n1" : 7.17

// recorded log(1/C) for "Cc1cc(C#N)cc(C)c1Nc1ccnc(Nc2ccc(C#N)cc2)n1" : 8.15

* * *

methodDescription: Hydrophobic index, Log P of the compound
Type: physicochemical
conditionsUsed: octanol/water; read-out: logP
Below, each entry is listed alongside its reported logP.
// no unit, no text: just the number

Some solved cases for reference:
>  <smilesStr>
Cc1cc(C)c(Nc2nc(Nc3ccc(C#N)cc3)ncc2C#N)c(C)c1

>  <logP>
1.49

$$$$
>  <smilesStr>
C#Cc1cc(C)c(Oc2ccnc(Nc3ccc(C#N)cc3)n2)c(C)c1

>  <logP>
1.53

$$$$
>  <smilesStr>
Cc1cc(C)c(Nc2nc(Nc3ccc(C#N)cc3)ncc2-c2ccccc2)c(C)c1

>  <logP>
3.14

$$$$
>  <smilesStr>
Cc1cc(C#N)cc(C)c1Nc1ccnc(Nc2ccc(C#N)cc2)n1

>  <logP>
1.21

$$$$
>  <smilesStr>
Cc1cnc(Nc2ccc(C#N)cc2)nc1Nc1c(C)cc(C#N)cc1C

>  <logP>
1.49

$$$$
>  <smilesStr>
Cc1cc(C#N)cc(C)c1Oc1nc(Nc2ccc(C#N)cc2)ncc1N

>  <logP>
-0.21

$$$$
>  <smilesStr>
Cc1cc(C#N)cc(C)c1Oc1nc(Nc2ccc(C#N)cc2)ncc1Cl

>  <logP>
1.29

$$$$
>  <smilesStr>
Cc1cc(C#N)cc(C)c1Nc1nc(Nc2ccc(C#N)cc2)ncc1Br

>  <logP>
1.39

$$$$

// recorded logP for "Cc1cc(C)c(Oc2nc(Nc3ccc(C#N)cc3)ncc2Br)c(C)c1" : 1.82

// recorded logP for "Cc1cc(C#N)cc(C)c1Nc1nc(Nc2ccc(C#N)cc2)nc(NO)c1Br" : 2.18

// recorded logP for "Cc1cc(Br)cc(C)c1Oc1ccnc(Nc2ccc(C#N)cc2)n1" : 1.72

* * *

methodDescription: Hydrophobic index, Log P of the compound
Format: physicochemical
conditionsUsed: octanol/water; read-out: logP
readoutName: logP

>  <smilesStr>
CC(=O)Nc1cnc(Nc2ccc(C#N)cc2)nc1Oc1c(C)cc(C#N)cc1C

>  <readoutName>
logP

>  <experimentalValue>
-0.38

$$$$
>  <smilesStr>
Cc1cc(Br)cc(C)c1Nc1ccnc(Nc2ccc(C#N)cc2)n1

>  <readoutName>
logP

>  <experimentalValue>
1.54

$$$$
>  <smilesStr>
Cc1cc(C#N)cc(C)c1Oc1ccnc(Nc2ccc(C#N)cc2)n1

>  <readoutName>
logP

>  <experimentalValue>
1.39

$$$$

// recorded logP for "Cc1cc(C)c(Oc2ccnc(Nc3ccc(C#N)cc3)n2)c(C)c1" : 1.82

// recorded logP for "Cc1cc(C#N)cc(C)c1Nc1nc(Nc2ccc(C#N)cc2)ncc1C#N" : 1.06
